# System: leukotriene biosynthesis
# experimentNotes: Inhibition of leukotriene biosynthesis in vivo, Ionophore-Induced Rat Pleural Inflammation Model
# conditionSummary: 0.5 h, male rats, dosed in 0.2% methocel one hour prior to intrapleural A23187, lavage 30 min later, enzyme immunoassay
Counter-ions that a name gives are not always drawn.
outcomeMeasure: inhibition in vivo at 3 mg/kg (%)
Give bare numbers, in %.

Example cases with answers are listed next.
**Query** Fill blank: measured inhibition in vivo at 3 mg/kg of the compound CC(CCC(=O)O)(c1ccc(OCc2ccc3cc(F)ccc3n2)cc1)c1ccc(OCc2ccc3cc(F)ccc3n2)cc1 [Example 11, sodium salt] is ____.
**Result** 42

**Query** Now try CC(CCCC(=O)O)(c1ccc(OCc2ccc3ccccc3n2)cc1)c1ccc(OCc2ccc3ccccc3n2)cc1 [Example 14] .
**Result** 32

**Query** Now try CC(C)(C=NOCC(=O)O)C(c1ccc(OCc2ccc3ccccc3n2)cc1)c1ccc(OCc2ccc3ccccc3n2)cc1 [Example 27, sodium salt] .
**Result** 42

**Query** Now try CC(C)(C(=O)O)C(c1ccc(OCc2ccc3ccccc3n2)cc1)c1ccc(OCc2ccc3ccccc3n2)cc1 [Example 26, sodium salt] .
**Result** 50

Please state, for each entry, its recorded inhibition in vivo at 3 mg/kg.
1. CC(=NOCCC#CC(O)(c1ccc(OCc2ccc3ccccc3n2)cc1)c1ccc(OCc2ccc3ccccc3n2)cc1)C(=O)O [Example 38, sodium salt]
2. CCC(C(=O)O)(c1ccc(OCc2ccc3ccccc3n2)cc1)c1ccc(OCc2ccc3ccccc3n2)cc1 [Example 24]
3. O=C(O)CC(c1ccc(OCc2ccc3ccccc3n2)cc1)c1ccc(OCc2ccc3ccccc3n2)cc1 [Example 34, sodium salt]

**Result**
1: 40; 2: 38; 3: 30

**Query** Fill blank: measured inhibition in vivo at 3 mg/kg of the compound CC(CCC(=O)O)(c1ccc(OCc2ccc3ccccc3n2)cc1)c1ccc(OCc2ccc3ccccc3n2)cc1 [Example 2, sodium salt] is ____.
**Result** 53

The measurements presented in this section are drawn from patent US5843968A.
